Attribution: ChEMBL document CHEMBL1955818

Target desc: Alpha-2A adrenergic receptor (Homo sapiens)
Sequence (P08913 whole entry): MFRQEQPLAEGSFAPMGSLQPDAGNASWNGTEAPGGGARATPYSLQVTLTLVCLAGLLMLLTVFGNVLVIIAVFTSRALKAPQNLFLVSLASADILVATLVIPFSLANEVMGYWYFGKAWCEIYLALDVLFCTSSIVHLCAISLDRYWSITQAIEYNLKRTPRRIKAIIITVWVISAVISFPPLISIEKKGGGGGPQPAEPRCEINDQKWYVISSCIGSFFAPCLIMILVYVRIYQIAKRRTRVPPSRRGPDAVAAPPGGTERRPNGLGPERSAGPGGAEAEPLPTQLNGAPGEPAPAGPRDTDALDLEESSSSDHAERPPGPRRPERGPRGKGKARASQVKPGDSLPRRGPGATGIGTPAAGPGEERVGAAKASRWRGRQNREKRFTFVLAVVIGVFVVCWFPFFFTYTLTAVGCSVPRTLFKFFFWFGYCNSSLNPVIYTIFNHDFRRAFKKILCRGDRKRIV
Mark each entry 1 (yes) if its Ki sits below 0.04 µM, and 0 (no) for all others.

Example entries begin here.
CC(Oc1ccccc1S(C)(=O)=O)C1=NCCN1 (stereo not drawn)	0 (no)
CC(Oc1ccccc1Br)C1=NCCN1 (stereo not drawn)	1 (yes)
CC(Oc1ccccc1CC1CC1)C1=NCCN1 (stereo not drawn)	1 (yes)
CC(=O)c1ccccc1OC(C)C1=NCCN1 (stereo not drawn)	0 (no)

In: Check if Ki falls below 0.04 µM for CCc1cccc(CC)c1OC(C)C1=NCCN1 (stereo not drawn) .
Out: 1 (yes)

In: // repeat for CC(Oc1ccccc1C=O)C1=NCCN1 (stereo not drawn) and report
Out: 0 (no)

In: // repeat for COc1ccccc1OC(C)C1=NCCN1 (stereo not drawn) and report
Out: 0 (no)

In: // repeat for CC(Oc1ccccc1Cl)C1=NCCN1 (stereo not drawn) and report
Out: 1 (yes)

In: // repeat for CCOc1ccccc1OC(C)C1=NCCN1 (stereo not drawn) and report
Out: 0 (no)

In: // repeat for C=C(C)c1ccccc1OC(C)C1=NCCN1 (stereo not drawn) and report
Out: 0 (no)

###

Target desc: Alpha-2C adrenergic receptor (Homo sapiens)
Sequence (P18825 whole entry): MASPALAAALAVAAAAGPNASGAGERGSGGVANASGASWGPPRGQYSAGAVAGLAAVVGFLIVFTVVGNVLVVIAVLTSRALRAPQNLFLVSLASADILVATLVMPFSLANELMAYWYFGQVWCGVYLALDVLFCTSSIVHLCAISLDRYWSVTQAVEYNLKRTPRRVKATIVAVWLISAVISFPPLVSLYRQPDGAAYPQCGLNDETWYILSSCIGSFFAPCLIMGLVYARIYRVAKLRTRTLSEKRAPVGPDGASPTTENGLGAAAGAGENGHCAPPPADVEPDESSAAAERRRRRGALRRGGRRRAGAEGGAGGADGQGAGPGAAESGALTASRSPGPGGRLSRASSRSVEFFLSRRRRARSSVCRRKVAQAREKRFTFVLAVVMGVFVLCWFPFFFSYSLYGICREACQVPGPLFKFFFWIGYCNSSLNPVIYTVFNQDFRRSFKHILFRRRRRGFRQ
Assay name: Intrinsic activity at human adrenoceptor aplha 2C expressed in CHO cells by cytosensor microphysiometric analysis relative to (-)-noradrenaline
Assay type: cell-based
Quantity: Intrinsic activity
Reply: number alone, nothing else.

COc1ccccc1OC(C)C1=NCCN1 (stereo not drawn)	0.6

In: Please give the measured Intrinsic activity for this compound: CC(Oc1ccccc1C=O)C1=NCCN1 (stereo not drawn)
Out: 0.6

In: // repeat for CC(Oc1c(-c2ccccc2)cccc1-c1ccccc1)C1=NCCN1 (stereo not drawn) and report
Out: 0.7

In: // repeat for CCOc1ccccc1OC(C)C1=NCCN1 (stereo not drawn) and report
Out: 0.45

In: // repeat for CC(Oc1ccccc1CC1CC1)C1=NCCN1 (stereo not drawn) [CYCLOMETHYLINE] and report
Out: 0.8

In: // repeat for CC(Oc1ccccc1S(C)(=O)=O)C1=NCCN1 (stereo not drawn) and report
Out: 0.6

In: // repeat for CCc1ccccc1OC(C)C1=NCCN1 (stereo not drawn) and report
Out: 0.6

In: // repeat for C=CCc1cccc(CC=C)c1OC(C)C1=NCCN1 (stereo not drawn) and report
Out: 0.9

In: // repeat for CCc1cccc(CC)c1OC(C)C1=NCCN1 (stereo not drawn) and report
Out: 0.65

###

What follows is a collection of pKi values obtained with Alpha-2B adrenergic receptor (Homo sapiens).
Sequence (P18089 whole entry): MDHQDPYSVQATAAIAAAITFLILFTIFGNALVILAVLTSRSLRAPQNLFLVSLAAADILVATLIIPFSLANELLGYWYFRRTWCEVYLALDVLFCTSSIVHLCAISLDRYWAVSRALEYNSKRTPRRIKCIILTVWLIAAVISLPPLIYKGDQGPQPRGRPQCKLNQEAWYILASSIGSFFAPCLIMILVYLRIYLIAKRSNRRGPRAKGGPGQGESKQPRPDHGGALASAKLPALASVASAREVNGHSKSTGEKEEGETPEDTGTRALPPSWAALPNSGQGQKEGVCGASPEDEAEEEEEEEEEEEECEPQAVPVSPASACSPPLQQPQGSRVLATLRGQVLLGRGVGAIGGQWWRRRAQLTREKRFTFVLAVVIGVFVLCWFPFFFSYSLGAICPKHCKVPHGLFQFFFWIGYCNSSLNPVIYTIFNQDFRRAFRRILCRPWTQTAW
// returns pKi (minus log10 of molar concentration), number only

Below are worked cases with known answers.
CC(Oc1ccccc1OC1CC1)C1=NCCN1 (stereo unspecified)	5.98
CCOc1ccccc1OC(C)C1=NCCN1 (stereo unspecified)	5.88
CCc1cccc(CC)c1OC(C)C1=NCCN1 (stereo unspecified)	6.57
CC(Oc1ccccc1C(C)C)C1=NCCN1 (stereo unspecified)	6.03
CC(Oc1ccccc1S(C)(=O)=O)C1=NCCN1 (stereo unspecified)	4.29

Please look at the following compound next.
In: Please give the measured pKi for this compound: CC(C)Oc1ccccc1OC(C)C1=NCCN1 (stereo unspecified)
Out: 5.80

###

Target desc: Alpha-2C adrenergic receptor (Homo sapiens)
Assay name: Agonist activity at human adrenoceptor aplha 2C expressed in CHO cells assessed as rate of extracellular acidification by cytosensor microphysiometric analysis
Type: functional, cell-based
Quantity: EC50 (nM)
Entry rule: numbers only, all in nM.

Below are worked cases with known answers.
CC(Oc1ccccc1C=O)C1=NCCN1 (stereo not given)	100
CC(C)Oc1ccccc1OC(C)C1=NCCN1 (stereo not given)	100
CC(Oc1ccccc1Br)C1=NCCN1 (stereo not given)	10
CC(Oc1ccccc1CC1CC1)C1=NCCN1 (stereo not given) [CYCLOMETHYLINE]	2
CCOc1ccccc1OC(C)C1=NCCN1 (stereo not given)	10000
CC(Oc1ccccc1C(F)(F)F)C1=NCCN1 (stereo not given)	794
CCc1cccc(CC)c1OC(C)C1=NCCN1 (stereo not given)	27.5
CC(=O)c1ccccc1OC(C)C1=NCCN1 (stereo not given)	200
CC(Oc1ccccc1S(C)(=O)=O)C1=NCCN1 (stereo not given)	316
C=COc1ccccc1OC(C)C1=NCCN1 (stereo not given)	631

In: Please give the measured EC50 for this compound: C=CCc1cccc(CC=C)c1OC(C)C1=NCCN1 (stereo not given)
Out: 56.2

In: // repeat for CC(Oc1ccccc1Cl)C1=NCCN1 (stereo not given) and report
Out: 166

In: // repeat for CC(Oc1ccccc1C(C)C)C1=NCCN1 (stereo not given) and report
Out: 398

In: // repeat for CC(Oc1ccccc1OC1CC1)C1=NCCN1 (stereo not given) and report
Out: 47.9

In: // repeat for CCc1ccccc1OC(C)C1=NCCN1 (stereo not given) and report
Out: 100

In: // repeat for COc1ccccc1OC(C)C1=NCCN1 (stereo not given) and report
Out: 9770

In: // repeat for C=C(C)c1ccccc1OC(C)C1=NCCN1 (stereo not given) and report
Out: 115

In: // repeat for Cc1cccc(C)c1OC(C)C1=NCCN1 (stereo not given) and report
Out: 27.5

In: // repeat for CC(Oc1c(Cl)cccc1Cl)C1=NCCN1 (stereo not given) [LOFEXIDINE] and report
Out: 1.38

In: // repeat for CC(Oc1c(-c2ccccc2)cccc1-c1ccccc1)C1=NCCN1 (stereo not given) and report
Out: 79.4

###

Target desc: Alpha-2A adrenergic receptor (Homo sapiens)
Details: CHO
Description: Antagonist activity at human adrenoceptor aplha 2A expressed in CHO cells assessed as inhibition of clonidine-induced response by cytosensor microphysiometric analysis
Quantity: pKb

Below are worked cases with known answers.
CC(Oc1ccccc1Br)C1=NCCN1 (stereo not drawn)	7.04
COc1ccccc1OC(C)C1=NCCN1 (stereo not drawn)	6.6
CCOc1ccccc1OC(C)C1=NCCN1 (stereo not drawn)	6.5
C=CCc1cccc(CC=C)c1OC(C)C1=NCCN1 (stereo not drawn)	8.56
CC(Oc1ccccc1OC1CC1)C1=NCCN1 (stereo not drawn)	6.9

In: Item: CC(Oc1ccccc1Cl)C1=NCCN1 (stereo not drawn) Test system: Alpha-2A adrenergic receptor (Homo sapiens) Read-out: pKb Value: ?
Out: 7.2

In: // repeat for C=COc1ccccc1OC(C)C1=NCCN1 (stereo not drawn) and report
Out: 5

In: // repeat for CCc1ccccc1OC(C)C1=NCCN1 (stereo not drawn) and report
Out: 6

###

Target desc: Alpha-2A adrenergic receptor (Homo sapiens, UniProt P08913)
Sequence (P08913 whole entry): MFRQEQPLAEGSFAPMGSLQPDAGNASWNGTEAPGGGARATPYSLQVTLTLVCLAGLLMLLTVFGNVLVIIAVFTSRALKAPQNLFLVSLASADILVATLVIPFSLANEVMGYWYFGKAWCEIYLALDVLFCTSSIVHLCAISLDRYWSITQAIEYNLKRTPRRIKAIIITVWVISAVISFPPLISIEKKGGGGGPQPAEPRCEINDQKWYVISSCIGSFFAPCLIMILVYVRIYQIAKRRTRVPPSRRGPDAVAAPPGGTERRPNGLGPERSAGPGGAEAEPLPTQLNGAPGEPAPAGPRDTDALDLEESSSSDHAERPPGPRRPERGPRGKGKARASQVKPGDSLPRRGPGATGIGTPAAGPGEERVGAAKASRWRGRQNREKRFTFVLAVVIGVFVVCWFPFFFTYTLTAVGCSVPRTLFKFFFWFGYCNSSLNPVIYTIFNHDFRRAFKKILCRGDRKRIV
Reported pKi values follow for various molecules
// returns pKi (minus log10 of molar concentration), number only

Below are worked cases with known answers.
CC(Oc1ccccc1C(F)(F)F)C1=NCCN1 (stereo not drawn)	6.74
CC(Oc1ccccc1C(C)C)C1=NCCN1 (stereo not drawn)	7.14
CC(Oc1ccccc1OC1CC1)C1=NCCN1 (stereo not drawn)	7.08
C=CCc1cccc(CC=C)c1OC(C)C1=NCCN1 (stereo not drawn)	7.78
CCc1ccccc1OC(C)C1=NCCN1 (stereo not drawn)	7.62

In: Please give the measured pKi for this molecule: CC(Oc1c(-c2ccccc2)cccc1-c1ccccc1)C1=NCCN1 (stereo not drawn)
Out: 6.31

In: // repeat for Cc1cccc(C)c1OC(C)C1=NCCN1 (stereo not drawn) and report
Out: 7.93

In: // repeat for CC(C)Oc1ccccc1OC(C)C1=NCCN1 (stereo not drawn) and report
Out: 7.08
